System: IGROV1 ovarian
Test: NCI-60 one-dose screen, 48 h (100 = growth as untreated, 0 = no growth, -100 = all killed)
Conditions: 10 µM
About 83,000 compounds went through this panel and 20% of them were active in at least one assay; those are over-represented in the sample as a whole.
Response key: satisfied means growth >= 60%; not satisfied means growth < 60%.

Solved cases (5 shown):
| MOLECULE | CLASS ASSIGNMENT |
| --- | --- |
| CCN(CC)c1ccc(/C=C2\SC(=O)C(Nc3nnc(-c4cccnc4SCc4ccccc4)o3)C2=O)cc1 (centres undefined) | not satisfied |
| COc1ccc(/C=C2\CCCC3=C2N=C2SC(C)=CN2C3c2ccc(OC)cc2)cc1 (centres undefined) | satisfied |
| CC(C)Cc1ccc([C@H](C)C(=O)O)cc1 | satisfied |
| O=C(Nc1cc([N+](=O)[O-])c2[nH]c(=O)c3ccccc3c2c1)C(F)(F)F | satisfied |
| COc1cc(C)ccc1Oc1nc(Nc2ccc(N3CCOCC3)cc2)ncc1NC(=O)Nc1cc(C(F)(F)F)cc(C(F)(F)F)c1 | satisfied |

API: the following record is the query input.
Challenge: API: above_or_equal(metric=growth, cutoff=60%) for item CN(C)CCC1(c2ccccc2)CCN(C)C1=O (centres undefined)
Response given: satisfied

###

Tested on: M14 melanoma
Assay: NCI-60 one-dose screen, 48 h
Conditions: 10 µM
Procedure: Growth inhibition of the M14 human tumor cell line is measured as a screen for anti-cancer activity. Cells are grown in 96 well plates and exposed to the test compound for 48 hours. Compounds are tested at a single concentration, which is 10^-5 M for most compounds. The reported endpoint is percent growth (GI% or GIPRCNT), where numbers from 0 - 100% represent growth inhibition, and numbers from -100% - 0 represent cell death. For example, a value of 40 represents 60% growth inhibition. […]
About 83,000 compounds went through this panel and 20% of them were active in at least one assay; those are over-represented in the sample as a whole. Active and inactive are the calls of the source. The calls were made as follows: active = growth percent below 10; inactive = the rest.
In this exercise, the only acceptable responses are active, inactive

// known answers, use as guide
| COMPOUND | CLASS ASSIGNMENT |
| --- | --- |
| COc1cc(NC(=O)C2=C(N3CCOCC3)/C(=C/c3ccc(Cl)cc3)CC2)cc(OC)c1OC | inactive |
| COc1cc2c(Nc3ccc(S(N)(=O)=O)cc3)ncnc2c(OC)c1OC | inactive |
| O=C(CNc1nnc(-c2cccnc2SCc2ccccc2)s1)Nc1nc(Cl)cc(Cl)n1 | inactive |

Challenge: What was the test verdict on "CCn1c(SCCc2ccccc2)nnc1-c1nn(-c2ccc(Cl)cc2Cl)c(-c2ccc(Cl)cc2)c1C" ?
Response given: inactive

Challenge: Also, "O=C(Nc1ccc(OCc2nnc(-c3ccc(Cl)cc3)o2)c(F)c1)Nc1ccc(Cl)c(C(F)(F)F)c1" please.
Response given: active

Challenge: Again, but for "S=C(SSC(=S)N(c1ccccc1)c1ccccc1)N(c1ccccc1)c1ccccc1"
Response given: inactive

Challenge: And "CN(C)CCCOc1ccc(OCCCN(C)C)c2c1C(=O)c1ccccc1C2=O" ?
Response given: active

Challenge: Can you check CCC(=O)OC1CCC2C3CCC(=O)OC3C(C)(CCC(=O)O)CC12C (stereo not given) next?
Response given: inactive

Challenge: Also "O=C(CCCCCCC(=O)Nc1ccccc1)NO" , if possible.
Response given: inactive

Challenge: Next record, please: "Cc1ccc2nc(Cl)c(-c3nc4ccccc4o3)cc2c1"
Response given: inactive

###

Listed molecules paired with reported growth
Test system: HCC-2998 colon
Experiment: NCI-60 one-dose screen, 48 h (100 = growth as untreated, 0 = no growth, -100 = all killed)
Conditions: 10 µM
Compounds without any hit were thinned out: in the full panel of roughly 83,000, 20% have a hit.
Number in %, nothing else.

Worked examples follow.
| MOLECULE | TESTED ON | RECORDED MEASUREMENT |
| --- | --- | --- |
| Cc1c2cnccc2c(C)c2c1c1cc(O)ccc1n2C(C)C | HCC-2998 colon | 20.8 |
| CCOC(=O)CN(c1sc(C)c(C)c1C(=O)OCC)S(=O)(=O)c1ccc(C)cc1 | HCC-2998 colon | 100 |
| CCNCC(=O)Nc1ccc(C(=O)OCC)cc1 | HCC-2998 colon | 98.7 |
| COc1cc(C2CC(c3cc(Cl)c(C)cc3O)=NN2c2ccc(S(N)(=O)=O)cc2)cc(OC)c1OC (centres undefined) | HCC-2998 colon | -20.6 |
| O=C(O)Cc1ccc(O)c(O)c1 | HCC-2998 colon | 92.2 |

Challenge: Form entry - test system: HCC-2998 colon; read-out: growth; molecule: "C=CCn1c(SCC(=O)Nc2ccc(C(=O)/C=C/c3cc(OC)c(OC)c(OC)c3)cc2)nnc1-c1cc(-c2ccc(Cl)cc2)nc2ccccc12"
Response given: 103

Challenge: Another molecule to look at: "CCn1cc(CNc2ccc(C(=O)Nc3ccc4ccccc4c3)cc2)c(C)n1"
Response given: 81.5

Challenge: Can you check "O=C(O)c1cn(C2CC2)c2cc(N3CCN(C(=O)c4cc(-c5ccc(Cl)cc5)nc5ccccc45)CC3)c(F)cc2c1=O" next?
Response given: 99.2

Challenge: What do you have for "CN(C)c1ccc(/C=N/NC(=O)c2ccccc2Nc2cccc(C(F)(F)F)c2)cc1" ?
Response given: 116

Challenge: Can you check COc1cc(/C=C2\CCCC3=C2N=C2SC(C)=CN2C3c2cc(OC)c(OC)c(OC)c2)cc(OC)c1OC (centres undefined) next?
Response given: -88

Challenge: Another molecule: CC1OC2CC(=O)OC2C2=C1C(=O)c1c(O)c3c(c(O)c1C2=O)C1CC(O)C3(O)C(C)O1 (centres undefined)
Response given: -28.4

Challenge: Can you handle COc1cc(CNC(=O)C2CSC3(C)c4ccccc4C(=O)N23)cc(OC)c1OC (centres undefined) next?
Response given: 95.5

Challenge: Same lookup for "CN(C)CCOc1ccccc1NC1=C(Cl)C(=O)C(Nc2ccccc2OCCN(C)C)=C(Cl)C1=O" , please.
Response given: 101

Challenge: Proceed to COc1cc2ncnc(NC3CCC(O)CC3)c2cc1OC (centres undefined)
Response given: 106

###

Collected growth values appear next to each entry.
Tested on: OVCAR-4 ovarian
Assay: NCI-60 one-dose screen, 48 h (100 = growth as untreated, 0 = no growth, -100 = all killed)
Conditions: 10 µM
Protocol: Growth inhibition of the OVCAR-4 human tumor cell line is measured as a screen for anti-cancer activity. Cells are grown in 96 well plates and exposed to the test compound for 48 hours. Compounds are tested at a single concentration, which is 10^-5 M for most compounds. The reported endpoint is percent growth (GI% or GIPRCNT), where numbers from 0 - 100% represent growth inhibition, and numbers from -100% - 0 represent cell death. For example, a value of 40 represents 60% growth inhibition. […]
About 83,000 compounds went through this panel and 20% of them were active in at least one assay; those are over-represented in the sample as a whole.
Use % as the unit, but write only the number.

Check out these entries, answers already filled in.
| COMPOUND | growth (%) |
| --- | --- |
| CCN(CC)CCCC(C)N=C(C1=C(C(=NC(C)CCCN(CC)CC)c2cccc(OC)c2)C(=O)NC1=O)c1cccc(OC)c1 (stereo unspecified) | -23.5 |
| COc1ccccc1N1CCCSC1=Nc1ccccc1 | 151 |
| Fc1ccc2[nH]cc(-c3nc(-c4ccsc4)cs3)c2c1 | 101 |
| O=C(O)Cc1ccc(O)c(O)c1 | 109 |
| c1cncc(-c2csc(-c3c[nH]c4ccccc34)n2)c1 | 79.1 |

Would you kindly look at the next entry?
Challenge: Data request, read-out growth, for "Cc1cc(Cl)ccc1Nc1nc(C(F)(F)F)ccc1C(=O)N/N=C/c1cccc(O)c1"
Response given: 33.8

###

Tested on: HCC-2998 colon
Assay: NCI-60 one-dose screen, 48 h (100 = growth as untreated, 0 = no growth, -100 = all killed)
Conditions: 10 µM
Procedure: Growth inhibition of the HCC-2998 human tumor cell line is measured as a screen for anti-cancer activity. Cells are grown in 96 well plates and exposed to the test compound for 48 hours. Compounds are tested at a single concentration, which is 10^-5 M for most compounds. The reported endpoint is percent growth (GI% or GIPRCNT), where numbers from 0 - 100% represent growth inhibition, and numbers from -100% - 0 represent cell death. For example, a value of 40 represents 60% growth inhibition. […]
Compounds without any hit were thinned out: in the full panel of roughly 83,000, 20% have a hit.
TEST READOUT: growth (%)
State the answer as a number, implicitly in %.

| COMPOUND | UNIT OF MEASUREMENT | RECORDED MEASUREMENT |
| --- | --- | --- |
| Cc1nc2n(c(=O)c1CCN1CCC(c3noc4cc(F)ccc34)CC1)CCC[C@@H]2O | % | 109 |
| COc1ccccc1N1CCCSC1=Nc1ccccc1 | % | 108 |
| Cc1[nH]c2ccccc2c1/C=N/Nc1ncnc2sc3c(c12)CCN(CC(=O)OC(C)(C)C)C3 | % | 99.5 |
| C=CCN(CC=C)C(=O)[C@H](CC)[C@@H]1CC[C@@H](C)[C@@H]([C@H](C)[C@@H](O)[C@@H](C)C(=O)[C@H](CC)C2O[C@]3(C=C[C@@H](O)[C@]4(CC[C@@](C)([C@H]5CC[C@](O)(CC)[C@H](C)O5)O4)O3)[C@H](C)C[C@@H]2C)O1 (stereo not given in full) | % | 12.6 |
| C1CN(CC2CCC(CN3CCOCC3)O2)CCO1 (stereo not given) | % | 102 |

Challenge: Param item = "CC(C)c1cc(N=O)cc(C(C)C)c1O" ; retrieve measured growth.
Response given: 104

Challenge: And "COc1ccc2c(c1)CC=C1[C@@H]2CC[C@]2(C)C(=O)/C(=N/O)C[C@@H]12" ?
Response given: 79.7

Challenge: Now try Nc1ccc(-c2cccs2)cc1NC(=O)c1ccc(CCCC(=O)Nc2ccc(C3CC3N)cc2)cc1 (stereo not given) .
Response given: 99.7

Challenge: How about this compound: "COc1cc(C(=O)N2CCN(c3cc4c(cc3F)c(=O)c(C(=O)NO)cn4C3CC3)CC2)cc(OC)c1OC"
Response given: 110

Challenge: Next entry: CC1CCCC(C(=O)O)C1C(=O)O (stereo not given)
Response given: 92.9
